Every entry's value here was drawn from patent US20220087987A1.

# Protocol: Drug library screen, cell viability (CellTiter-Glo)
# Type: cell-based, human
# Run parameters: human; HCT116 ARID1A-WT; 10 μM for 5 days; relative to cells treated with solvent (DMSO); read-out: Cell viability, WT
Result type: viability at 5 days, 10 μM (%)
Response body: numeric value in %, unit text excluded.

So, CC(=O)O[C@H]1C(=O)[C@@]2(C)[C@H]([C@H](OC(=O)c3ccccc3)[C@]3(O)C[C@H](OC(=O)[C@H](O)[C@@H](NC(=O)c4ccccc4)c4ccccc4)C(C)=C1C3(C)C)[C@]1(OC(C)=O)CO[C@@H]1C[C@@H]2O [Paclitaxel] ? Its viability at 5 days, 10 μM was 4.91

So, O=c1cc(-c2ccccc2)oc2cc(O)c(O)c(O)c12 [Baicalein] ? Its viability at 5 days, 10 μM was 94.6

So, CC(C)C[C@H](NC(=O)[C@@H](O)[C@H](N)Cc1ccccc1)C(=O)O [Bestatin] ? Its viability at 5 days, 10 μM was 68.6

So, C[C@@H](N)[C@H]1CC[C@H](C(=O)Nc2ccncc2)CC1 [Y27632] ? Its viability at 5 days, 10 μM was 160

====

# System: ARID1A-KO HCT116 cells
# Protocol: Drug library screen, cell viability (CellTiter-Glo)
# Assay type: cell-based, human
# Run parameters: HCT116 ARID1A-KO; 10 μM for 5 days; relative to cells treated with solvent (DMSO)
Result type: Cell viability, KO
Answer with the value's number alone.

So, Nc1ncnc2nc(-c3ccc(N4CCOCC4)nc3)cc(-c3cccc(Br)c3)c12 ? Its Cell viability, KO was 111.7532

So, CCOC(=O)c1c(C)[nH]c(/C=C2\C(=O)Nc3ccccc32)c1C ? Its Cell viability, KO was 109.4563

So, Fc1ccc(Cl)cc1-c1nc(Nc2ccncc2)c2nccnc2n1 ? Its Cell viability, KO was 78.9

So, Cc1cccc(-c2[nH]ncc2-c2ccc3ncccc3n2)n1 ? Its Cell viability, KO was 104.5326

So, COc1ccc(C2=N[C@@H](c3ccc(Cl)cc3)[C@@H](c3ccc(Cl)cc3)N2C(=O)N2CCNC(=O)C2)c(OC(C)C)c1 ? Its Cell viability, KO was 25.82

So, O=C(Nc1cccc(NC(=O)c2cccc(O)c2O)c1)c1cccc(O)c1O ? Its Cell viability, KO was 7.703

So, CCN1/C(=C/C(C)=O)Sc2ccc(OC)cc21 ? Its Cell viability, KO was 138.6968

So, COc1ccc2c3c([nH]c2c1)[C@H](C=C(C)C)N1C(=O)[C@@H]2CCCN2C(=O)[C@@H]1C3 ? Its Cell viability, KO was 97.39

So, O=S(=O)(NCCNC/C=C/c1ccc(Br)cc1)c1cccc2cnccc12 ? Its Cell viability, KO was 119.4541

So, CCOC(=O)C1=C(N)Oc2ccc(Br)cc2C1C(C#N)C(=O)OCC (centres unmarked) ? Its Cell viability, KO was 119.1814

So, COc1ccc(C[C@H]2NC[C@H](O)[C@H]2OC(C)=O)cc1 ? Its Cell viability, KO was 7.327

So, CCCC[C@@H](C)[C@@H](OC(=O)C[C@@H](CC(=O)O)C(=O)O)[C@H](C[C@@H](C)C[C@H](O)CCCC[C@@H](O)C[C@H](O)[C@H](C)N)OC(=O)C[C@@H](CC(=O)O)C(=O)O ? Its Cell viability, KO was 83.33

So, O=C(Nc1ccc([N+](=O)[O-])cc1O)Nc1ccccc1Br ? Its Cell viability, KO was 8.056

So, CCOc1nc(NC(=O)Cc2cc(OC)ccc2OC)cc(N)c1C#N ? Its Cell viability, KO was 189.4425

So, Cc1ccc(NC(=O)c2cccc(N(C)C)c2)cc1NC(=O)c1ccc(O)cc1 ? Its Cell viability, KO was 179.4192

So, NC(=O)c1ccc2nc(-c3ccc(Oc4ccc(Cl)cc4)cc3)[nH]c2c1 ? Its Cell viability, KO was 139.2543

So, C[C@H](NC(=O)Cc1cc(F)cc(F)c1)C(=O)N[C@H](C(=O)OC(C)(C)C)c1ccccc1 ? Its Cell viability, KO was 103.8309
